Origin of measurements: ChEMBL document CHEMBL1961873

For each record, write down the corresponding inhibition.
- target entity: Serine/threonine-protein kinase Nek9 (Homo sapiens);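 further: reported value is the mean percent inhibition of NEK9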
- condition description: at 0.1 µM
Your answer is read as %, so omit the unit and give the number.

Assign inhibition to the following record: Cc1ccc(C(=O)NC2CC2)cc1-c1ccc2[nH]ncc2c1
0.32

Assign inhibition to the following record: N#Cc1cccc(Nc2nccc(-c3cnn4ncccc34)n2)c1
7

Assign inhibition to the following record: CN(C)CCCn1c(-c2nonc2N)nc2cnccc21
8.39

Assign inhibition to the following record: C[C@@H](Oc1cc(-n2cnc3ccc(OCC4CCN(C)CC4)cc32)sc1C(N)=O)c1ccccc1C(F)(F)F
88.3

Assign inhibition to the following record: CCn1c(-c2nonc2N)nc2ccc(F)cc21
5.14

Assign inhibition to the following record: ON=C1CCc2cc(-c3nc(C4CCNCC4)[nH]c3-c3ccncc3)ccc21
4.01

---

- target entity: Ephrin type-B receptor 4 (Homo sapiens);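 further: reported value is the mean percent inhibition of EPHB4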
- condition description: at 1 µM
assay readout: inhibition (%)
Your answer is read as %, so omit the unit and give the number.

Assign inhibition to the following record: Cc1ccc2c(-c3ccnc(Nc4cccc(C(F)(F)F)c4)n3)c(-c3ccccc3)nn2n1
46.4

Assign inhibition to the following record: COc1cc(Nc2nccc(-c3cnn4ncccc34)n2)cc(OC)c1
25.6

Assign inhibition to the following record: O=S(=O)(CCOCc1ccc(-c2ccc3ncnc(Nc4ccc(OCc5cccc(F)c5)c(Cl)c4)c3c2)o1)c1ccccc1
1.36

Assign inhibition to the following record: CCS(=O)(=O)c1ccc(OC)c(Nc2nccc(N(C)c3ccc4c(C)n[nH]c4c3)n2)c1
65.8

Assign inhibition to the following record: OCc1ccc(-c2nc(-c3ccccn3)c(-c3ccc4c(c3)OCO4)[nH]2)cc1
4.09

Assign inhibition to the following record: c1ccc(Nc2ncc(-c3ccccc3)o2)cc1
5.49

Assign inhibition to the following record: N#Cc1c(NC(=O)c2ccccc2F)sc2c1CCCC2
0.07

Assign inhibition to the following record: Oc1cccc(-c2nc(-c3ccccc3)[nH]c2-c2ccncc2)c1
9.99

Assign inhibition to the following record: FC(F)(F)c1ccc(-c2nn3ncccc3c2-c2ccnc(Nc3ccc4c(c3)OCCO4)n2)cc1
10.2

Assign inhibition to the following record: CS(=O)(=O)Nc1cccc(-c2ccc3c(NC(=O)C4CC4)n[nH]c3c2)c1
0.5

---

- target entity: Insulin-like growth factor 1 receptor (Homo sapiens) (UniProt P08069)
- Sequence (P08069 31-736 limits assumed): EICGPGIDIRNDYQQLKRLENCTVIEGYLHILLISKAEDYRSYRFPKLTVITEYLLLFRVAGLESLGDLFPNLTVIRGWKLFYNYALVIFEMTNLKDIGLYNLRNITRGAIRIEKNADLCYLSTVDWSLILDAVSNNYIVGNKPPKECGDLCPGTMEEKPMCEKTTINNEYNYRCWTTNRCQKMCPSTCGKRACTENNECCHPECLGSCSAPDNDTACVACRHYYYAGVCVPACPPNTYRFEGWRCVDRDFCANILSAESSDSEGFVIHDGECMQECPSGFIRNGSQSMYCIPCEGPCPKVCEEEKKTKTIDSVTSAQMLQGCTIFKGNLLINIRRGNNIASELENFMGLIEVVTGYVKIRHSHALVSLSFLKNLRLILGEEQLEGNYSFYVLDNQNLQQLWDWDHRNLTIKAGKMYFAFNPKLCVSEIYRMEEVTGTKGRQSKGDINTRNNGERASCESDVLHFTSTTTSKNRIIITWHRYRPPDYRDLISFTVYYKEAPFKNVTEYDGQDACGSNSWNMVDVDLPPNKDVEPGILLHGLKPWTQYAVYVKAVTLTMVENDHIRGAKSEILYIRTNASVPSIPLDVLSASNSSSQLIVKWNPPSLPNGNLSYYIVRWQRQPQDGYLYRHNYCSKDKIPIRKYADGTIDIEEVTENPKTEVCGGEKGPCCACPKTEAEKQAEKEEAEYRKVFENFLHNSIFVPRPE
- Sequence (P08069 741-1367 limits assumed): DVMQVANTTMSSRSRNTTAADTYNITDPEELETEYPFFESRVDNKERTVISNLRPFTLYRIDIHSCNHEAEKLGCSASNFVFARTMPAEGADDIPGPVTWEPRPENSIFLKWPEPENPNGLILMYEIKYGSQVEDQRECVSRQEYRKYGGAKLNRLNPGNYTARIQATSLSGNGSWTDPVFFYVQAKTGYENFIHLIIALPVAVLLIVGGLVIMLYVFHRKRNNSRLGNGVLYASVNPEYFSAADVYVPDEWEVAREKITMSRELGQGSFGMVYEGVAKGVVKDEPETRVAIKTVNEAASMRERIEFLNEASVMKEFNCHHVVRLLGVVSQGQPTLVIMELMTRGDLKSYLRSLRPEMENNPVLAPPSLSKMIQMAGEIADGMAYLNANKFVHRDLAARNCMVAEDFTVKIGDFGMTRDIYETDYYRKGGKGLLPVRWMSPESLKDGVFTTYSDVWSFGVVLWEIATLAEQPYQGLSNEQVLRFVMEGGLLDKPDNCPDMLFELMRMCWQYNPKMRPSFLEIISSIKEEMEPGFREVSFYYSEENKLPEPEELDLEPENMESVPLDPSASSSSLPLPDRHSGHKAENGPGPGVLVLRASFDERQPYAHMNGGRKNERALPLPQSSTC
- condition description: at 0.1 µM
For each record, write down the corresponding inhibition.
Your answer is read as %, so omit the unit and give the number.

Lab note: record inhibition of Cc1ccc2c(-c3ccnc(Nc4ccc5c(c4)OCCO5)n3)c(-c3ccc(C(F)(F)F)cc3)nn2n1 tested on Insulin-like growth factor 1 receptor (Homo sapiens) (UniProt P08069).
-4.21

Lab note: record inhibition of COC(=O)c1ccc2c(c1)C(=Cc1cc(Br)c(O)c(Br)c1)C(=O)N2 tested on Insulin-like growth factor 1 receptor (Homo sapiens) (UniProt P08069).
3.29

Lab note: record inhibition of Oc1cccc(-c2nc(-c3ccccc3)[nH]c2-c2ccncc2)c1 tested on Insulin-like growth factor 1 receptor (Homo sapiens) (UniProt P08069).
2.68

Lab note: record inhibition of CCCN1CCCC(c2ccc(Nc3nc(Nc4cc(F)ccc4C(N)=O)c4cc[nH]c4n3)c(OC)c2)C1 (stereo unspecified) tested on Insulin-like growth factor 1 receptor (Homo sapiens) (UniProt P08069).
93

Lab note: record inhibition of COc1cccc(-n2ncc3c(N/N=C/c4ccc(C)cc4)ncnc32)c1 tested on Insulin-like growth factor 1 receptor (Homo sapiens) (UniProt P08069).
5.92

Lab note: record inhibition of c1ccc(Nc2ncc(-c3ccccc3)o2)cc1 tested on Insulin-like growth factor 1 receptor (Homo sapiens) (UniProt P08069).
7.16

Lab note: record inhibition of NS(=O)(=O)c1ccc(-c2cc3ccncc3cc2OCc2ccccc2)cc1 tested on Insulin-like growth factor 1 receptor (Homo sapiens) (UniProt P08069).
1.47

Lab note: record inhibition of Nc1nccc(C#Cc2cncnc2Nc2ccc(OCc3cccc(F)c3)c(Cl)c2)n1 tested on Insulin-like growth factor 1 receptor (Homo sapiens) (UniProt P08069).
3.97

Lab note: record inhibition of Nc1nccc(-c2c(-c3ccc(F)cc3)ncn2CCCN2CCOCC2)n1 tested on Insulin-like growth factor 1 receptor (Homo sapiens) (UniProt P08069).
9.8

Lab note: record inhibition of CC(C)c1ccc2c(c1)NC(=O)/C2=N/Nc1ccc(S(N)(=O)=O)cc1 tested on Insulin-like growth factor 1 receptor (Homo sapiens) (UniProt P08069).
-0.14

Lab note: record inhibition of Cc1ccc(Nc2ccnc(Nc3cccc(C(N)=O)c3)n2)cc1O tested on Insulin-like growth factor 1 receptor (Homo sapiens) (UniProt P08069).
-3.28

Lab note: record inhibition of N#Cc1c(NC(=O)c2ccccc2F)sc2c1CCCC2 tested on Insulin-like growth factor 1 receptor (Homo sapiens) (UniProt P08069).
-4.1

Lab note: record inhibition of OCc1ccc(-c2nc(-c3ccccn3)c(-c3ccc4c(c3)OCO4)[nH]2)cc1 tested on Insulin-like growth factor 1 receptor (Homo sapiens) (UniProt P08069).
1.56

Lab note: record inhibition of Cc1cc(-c2ccccn2)cc(C)c1/C=C/c1cncc(-c2nn[nH]n2)c1 tested on Insulin-like growth factor 1 receptor (Homo sapiens) (UniProt P08069).
16.5

Lab note: record inhibition of CN(C)CCCn1c(-c2nonc2N)nc2cnccc21 tested on Insulin-like growth factor 1 receptor (Homo sapiens) (UniProt P08069).
10.2

Lab note: record inhibition of COc1cccc(-n2ncc3c(N/N=C/c4ccc(S(C)(=O)=O)cc4)ncnc32)c1 tested on Insulin-like growth factor 1 receptor (Homo sapiens) (UniProt P08069).
-6.32

Lab note: record inhibition of CN(C)C(=O)O[C@H]1CN[C@H](C#Cc2cc3ncnc(Nc4ccc(OCc5cccc(F)c5)c(Cl)c4)c3s2)C1 tested on Insulin-like growth factor 1 receptor (Homo sapiens) (UniProt P08069).
3.22

Lab note: record inhibition of CC(C)c1ccc(Nc2nccc(-c3cnn4ncccc34)n2)cc1 tested on Insulin-like growth factor 1 receptor (Homo sapiens) (UniProt P08069).
11.8

Lab note: record inhibition of NC(=O)c1sc(-n2cnc3ccccc32)cc1OCc1ccccc1Br tested on Insulin-like growth factor 1 receptor (Homo sapiens) (UniProt P08069).
1.53

Lab note: record inhibition of NS(=O)(=O)c1cccc(Nc2cc(-c3ccc(F)cc3)n[nH]2)c1 tested on Insulin-like growth factor 1 receptor (Homo sapiens) (UniProt P08069).
0.35

Lab note: record inhibition of COc1ccc(-c2nn3ncccc3c2-c2ccnc(Nc3cccc(C(F)(F)F)c3)n2)cc1 tested on Insulin-like growth factor 1 receptor (Homo sapiens) (UniProt P08069).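 Further: values are mean percent inhibition of IGF1R kinase activity, from the GSK published kinase inhibitor set (PKIS) screening panel.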
-1.5

---

- target entity: 5'-AMP-activated protein kinase catalytic subunit alpha-1 (Homo sapiens);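 further: enzyme tested as the AMPK alpha1 beta1 gamma1 complex, values reported as mean percent inhibition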
- condition description: at 0.1 µM
- Description: GSK_PKIS: AMPKA1 (A1B1G1) mean inhibition at 0.1 uM [Nanosyn]
assay readout: inhibition (%)
Your answer is read as %, so omit the unit and give the number.

Assign inhibition to the following record: ON=C1CCc2cc(-c3nc(C4CCNCC4)[nH]c3-c3ccncc3)ccc21
-0.26

Assign inhibition to the following record: CN(C)C(=O)O[C@H]1CN[C@H](C#Cc2cc3ncnc(Nc4ccc(OCc5cccc(F)c5)c(Cl)c4)c3s2)C1
2.01

Assign inhibition to the following record: O=C1Nc2ccc(-c3cccnc3)cc2C1=Cc1cc(Br)c(O)c(Br)c1
3.07

Assign inhibition to the following record: CN(C)CCCn1c(-c2nonc2N)nc2cnccc21
2.93

Assign inhibition to the following record: CCn1c(-c2nonc2N)nc2ccc(F)cc21
5.34

Assign inhibition to the following record: NS(=O)(=O)c1ccc(Nc2cc(-c3cccc(O)c3)n[nH]2)cc1
5.36

Assign inhibition to the following record: COc1cc(/C=N/Nc2ncnc3c2cnn3C(C)C)ccc1O
1.32

Assign inhibition to the following record: NS(=O)(=O)c1ccc(-c2cc3ccncc3cc2OCc2ccccc2)cc1
2.82

Assign inhibition to the following record: COc1ccc(-c2nn3ncccc3c2-c2ccnc(Nc3cccc(C(F)(F)F)c3)n2)cc1
2.78

Assign inhibition to the following record: COc1cccc(-n2ncc3c(N/N=C/c4ccc(C)cc4)ncnc32)c1
1.9

Assign inhibition to the following record: Nc1nccc(C#Cc2cncnc2Nc2ccc(OCc3cccc(F)c3)c(Cl)c2)n1
3.13

Assign inhibition to the following record: Cc1cc(O)cc(C)c1/C=C/c1cncc(C(=O)N(C)C)c1
2.63

Assign inhibition to the following record: N#Cc1c(NC(=O)c2ccccc2F)sc2c1CCCC2
-0.84

Assign inhibition to the following record: CCCN1CCCC(c2ccc(Nc3nc(Nc4cc(F)ccc4C(N)=O)c4cc[nH]c4n3)c(OC)c2)C1 (configuration not stated)
6.07

Assign inhibition to the following record: CN(c1ccc(NC(=O)Nc2ccc(OC(F)(F)F)cc2)cc1)c1ccnc(Nc2cccc(S(N)(=O)=O)c2)n1
0.3

Assign inhibition to the following record: NS(=O)(=O)c1cccc(-c2cc3ccncc3cc2OCc2ccccc2)c1
4.1

Assign inhibition to the following record: CCn1c(-c2nonc2N)nc2c(C#CC(C)(C)O)nc(OCCNC)cc21
2.74

Assign inhibition to the following record: N#Cc1cccc(Nc2nccc(-c3cnn4ncccc34)n2)c1
2.67

Assign inhibition to the following record: Cc1ccc2c(c1)/C(=N/Nc1ccc(S(N)(=O)=O)cc1)C(=O)N2
1.77

Assign inhibition to the following record: c1ccc(Cc2nc3ccc(Nc4ncnc5ccccc45)cc3[nH]2)cc1
3.03

Assign inhibition to the following record: COC(=O)c1ccc2c(c1)C(=Cc1cc(Br)c(O)c(Br)c1)C(=O)N2
2.71

Assign inhibition to the following record: CN(C)C(=O)O[C@@H]1CN[C@@H](C#Cc2cc3ncnc(Nc4ccc(OCc5cccc(F)c5)c(Cl)c4)c3s2)C1
1.21

Assign inhibition to the following record: COC(=O)Nc1nc2cc(Oc3ccc(NC(=O)Nc4cccc(Br)c4)cc3)ccc2[nH]1
2.86

Assign inhibition to the following record: Cc1ccc(C(=O)NC2CC2)cc1-c1ccc2[nH]ncc2c1
-1.87

Assign inhibition to the following record: Cc1ccc2c(-c3ccnc(Nc4ccc5c(c4)OCCO5)n3)c(-c3ccc(C(F)(F)F)cc3)nn2n1
0.51

Assign inhibition to the following record: CN(C)c1cc2c(Nc3ccc4c(cnn4Cc4ccccc4)c3)ncnc2cn1
2.65

Assign inhibition to the following record: NC(=O)c1sc(-n2cnc3ccccc32)cc1OCc1ccccc1Br
2.42

Assign inhibition to the following record: [O-][S+]1CCN(Cc2ccc(-c3ccc4ncnc(Nc5ccc(OCc6ccccc6)c(Cl)c5)c4c3)o2)CC1
0.09

Assign inhibition to the following record: C[C@@H](Oc1cc(-n2cnc3ccc(OCC4CCN(C)CC4)cc32)sc1C(N)=O)c1ccccc1C(F)(F)F
5.76

Assign inhibition to the following record: Nc1nccc(-c2c(-c3ccc(F)cc3)nn3cc(C(F)(F)F)ccc23)n1
-1.23

Assign inhibition to the following record: O=S(=O)(CCOCc1ccc(-c2ccc3ncnc(Nc4ccc(OCc5cccc(F)c5)c(Cl)c4)c3c2)o1)c1ccccc1
-0.69

Assign inhibition to the following record: CS(=O)(=O)Nc1cccc(-c2ccc3c(NC(=O)C4CC4)n[nH]c3c2)c1
1.97

Assign inhibition to the following record: Cc1cc(Cl)cc2c1NC(=O)C2=NNc1ccc(S(N)(=O)=O)cc1
1.67

Assign inhibition to the following record: c1ccc(Nc2ncc(-c3ccccc3)o2)cc1
2.6

Assign inhibition to the following record: NS(=O)(=O)c1cccc(Nc2cc(-c3ccc(F)cc3)n[nH]2)c1
3.82

Assign inhibition to the following record: Cc1ccc(Nc2ccnc(Nc3cccc(C(N)=O)c3)n2)cc1O
2.46

Assign inhibition to the following record: C[C@@H](Oc1cc(-n2cnc3ccc(OC[C@@H](O)CO)cc32)sc1C(N)=O)c1ccccc1Cl
0.18
